- experimental protocol: Cytotoxicity against human NCI-H3122 cells after 72 hrs by WST8 assay
- condition label: NCI-H3122, 72 h

[
  {
    "smiles text": "N#Cc1cccc(-c2ccc(=O)n(C[C@@H]3CN(c4ncc(-c5ccc(OCCN6CCOCC6)c(Cl)c5)cn4)CCO3)n2)c1",
    "IC50": "> 10000 nM"
  },
  {
    "smiles text": "O=c1ccc(-c2cccc(Cl)c2)nn1C[C@@H]1CN(c2ncc(-c3cnn(C4CCNCC4)c3)cn2)CCO1",
    "IC50": "> 10000 nM"
  },
  {
    "smiles text": "CN1CCC(COc2cnc(N3CCO[C@H](Cn4nc(-c5cccc(C#N)c5)ccc4=O)C3)nc2)CC1",
    "IC50": "> 10000 nM"
  },
  {
    "smiles text": "CN1CC=C(c2cnc(N3CCO[C@H](Cn4nc(-c5cccc(C#N)c5)ccc4=O)C3)nc2)CC1",
    "IC50": "> 10000 nM"
  },
  {
    "smiles text": "O=c1ccc(-c2ccc(F)c(Cl)c2)nn1C[C@@H]1CN(c2ncc(-c3cnn(C4CCNCC4)c3)cn2)CCO1",
    "IC50": "1700 nM"
  },
  {
    "smiles text": "CN1CCC(n2cc(-c3cnc(N4CCO[C@H](Cn5nc(-c6ccc(F)c(Cl)c6)ccc5=O)C4)nc3)cn2)CC1",
    "IC50": "1400 nM"
  },
  {
    "smiles text": "N#Cc1cccc(-c2ccc(=O)n(C[C@@H]3CN(c4ncc(-c5ccc(OCCN6CCOCC6)cc5)cn4)CCO3)n2)c1",
    "IC50": "> 10000 nM"
  },
  {
    "smiles text": "O=c1ccc(-c2cccc(C(F)(F)F)c2)nn1C[C@@H]1CN(c2ncc(-c3cnn(C4CCNCC4)c3)cn2)CCO1",
    "IC50": "1400 nM"
  }
]

* * *

- experimental protocol: Cytotoxicity against human NCI-H3122 cells after 72 hrs by WST8 assay
- condition label: NCI-H3122, 72 h
pIC50: −log10 of the molar value.

[
  {
    "smiles text": "O=c1ccc(-c2cc(F)c(F)c(F)c2)nn1C[C@@H]1CN(c2ncc(-c3cnn(C4CCNCC4)c3)cn2)CCO1",
    "qual": "=",
    "pIC50": 5.82
  },
  {
    "smiles text": "N#Cc1cccc(-c2ccc(=O)n(C[C@@H]3CN(c4ncc(C5=CCN(CCO)CC5)cn4)CCO3)n2)c1",
    "qual": "<",
    "pIC50": 5.00
  },
  {
    "smiles text": "N#Cc1cccc(-c2ccc(=O)n(C[C@@H]3CN(c4ncc(-c5ccc(OCCN6CCOCC6)nc5)cn4)CCO3)n2)c1",
    "qual": "=",
    "pIC50": 5.01
  },
  {
    "smiles text": "N#Cc1cccc(-c2ccc(=O)n(C[C@@H]3CN(c4ncc(-c5cnn(C6CCN(C7CCOCC7)CC6)c5)cn4)CCO3)n2)c1",
    "qual": "<",
    "pIC50": 5.00
  },
  {
    "smiles text": "O=c1ccc(-c2cc(F)cc(F)c2)nn1C[C@@H]1CN(c2ncc(-c3cnn(C4CCNCC4)c3)cn2)CCO1",
    "qual": "=",
    "pIC50": 5.72
  },
  {
    "smiles text": "CN1CCC(n2cc(-c3cnc(N4CCO[C@H](Cn5nc(-c6cccc(F)c6)ccc5=O)C4)nc3)cn2)CC1",
    "qual": "=",
    "pIC50": 5.48
  },
  {
    "smiles text": "N#Cc1cccc(-c2ccc(=O)n(C[C@@H]3CN(c4ncc(-c5cnn(CCO)c5)cn4)CCO3)n2)c1",
    "qual": "<",
    "pIC50": 5.00
  },
  {
    "smiles text": "O=c1ccc(-c2ccc(F)cc2)nn1C[C@@H]1CN(c2ncc(-c3cnn(C4CCN(CCO)CC4)c3)cn2)CCO1",
    "qual": "<",
    "pIC50": 5.00
  }
]

* * *

- experimental protocol: Cytotoxicity against human NCI-H3122 cells after 72 hrs by WST8 assay
- condition label: NCI-H3122, 72 h
pIC50: −log10 of the molar value.

[
  {
    "compound": "CN1CCN(c2ccc(-c3cnc(N4CCO[C@H](Cn5nc(-c6cccc(C#N)c6)ccc5=O)C4)nc3)cn2)CC1",
    "pIC50": 5.85
  },
  {
    "compound": "N#Cc1cccc(-c2ccc(=O)n(C[C@@H]3CN(c4ncc(-c5cnn(CC6CCN(CCO)CC6)c5)cn4)CCO3)n2)c1",
    "pIC50": "< 5.00"
  },
  {
    "compound": "N#Cc1cccc(-c2ccc(=O)n(C[C@@H]3CN(c4ncc(C5=CCNCC5)cn4)CCO3)n2)c1",
    "pIC50": "< 5.00"
  },
  {
    "compound": "O=c1ccc(-c2cccc(F)c2)nn1C[C@@H]1CN(c2ncc(-c3cnn(C4CCN(CCO)CC4)c3)cn2)CCO1",
    "pIC50": 5.48
  },
  {
    "compound": "CN1CCC(n2cc(-c3cnc(N4CCO[C@H](Cn5nc(-c6cc(F)c(F)c(F)c6)ccc5=O)C4)nc3)cn2)CC1",
    "pIC50": 5.12
  },
  {
    "compound": "Cn1cc(-c2cnc(N3CCO[C@H](Cn4nc(-c5ccc(OCc6ccccc6)cc5)ccc4=O)C3)nc2)cn1",
    "pIC50": "< 5.00"
  },
  {
    "compound": "O=c1ccc(-c2cc(F)c(F)c(F)c2)nn1C[C@@H]1CN(c2ncc(-c3cnn(C4CCN(CCO)CC4)c3)cn2)CCO1",
    "pIC50": "< 5.00"
  },
  {
    "compound": "Cn1cc(-c2cnc(N3CCO[C@H](Cn4nc(-c5cccc(C#N)c5)ccc4=O)C3)nc2)cn1",
    "pIC50": "< 6.00"
  },
  {
    "compound": "N#Cc1cccc(-c2ccc(=O)n(C[C@@H]3CN(c4ncc(-c5cnn(CCOC6CCCCO6)c5)cn4)CCO3)n2)c1 (some centres undefined)",
    "pIC50": "< 5.00"
  }
]
